Entries annotated with measured inhibition
- Target entity: Solute carrier family 2, facilitated glucose transporter member 1 (Homo sapiens)
- Run description: ST_JUDE_LEISH: Cytotoxicity at 2uM final concentration against transgenic Leishmania Mexicana promastigotes LmGLUT1 that are glucose transport deficient and complemented with the human glucose transporter GLUT1. Activity is measured by DNA content using SYBR green in vitro
- Type: functional
Expressed in %, but write only the number.

Recorded results for 3 compounds are shown here.
O=[N+]([O-])c1cccc(/C=N/Nc2ccnc3ccc(C(F)(F)F)cc23)c1 = 4.51
COc1ccc(Oc2ccccc2CNCC2CCN(CC3CCCCC3)CC2)cc1 = 6.31
N=c1n(CCN2CCCCC2)c2ccccc2n1CC(O)c1ccc(Cl)c(Cl)c1 (centres undefined) = 1.22

Consider now this further compound.
Can you share its inhibition? I mean this compound: FC(F)(F)c1ccc2c(NCCCNc3ccnc4cc(C(F)(F)F)ccc34)ccnc2c1 -2.25
